test: Clearance in Sprague-Dawley rat at 20 mg/kg, iv administered as single bolus dose by HPLC-MS/MS analysis; assay type: ADME, organism-based; conditions: in vivo

chemical string: O=C(Nc1ccc(CP(=O)(O)O)cc1)C1CCN(C(=O)OCc2cc(Cl)cc(Cl)c2)CC1
clearance (mL/min/kg): 12.2

----------
test: Tmax in Sprague-Dawley rat at 10 mg/kg, iv administered as single bolus dose by HPLC-MS/MS analysis; format: ADME, organism-based; conditions: in vivo

chemical string: O=C(Nc1ccc(CP(=O)(O)O)cc1)C1CCN(C(=O)OCc2cc(Cl)cc(Cl)c2)CC1
Tmax: 1.2 min
